- ASSAY_REMARKS: Solubility at pH 6.5
- Assay type: physicochemical
- CONDITION_SET: buffer
METRIC: solubility

{"MOLECULE": "O=C(N[C@H]1CC[C@H](c2ccc(O)cc2)CC1)C1Cc2ccccc2CN1 (stereo partly specified)", "MEAS_VALUE": "18 µg/mL"}
{"MOLECULE": "O=C(CCc1ccccc1)N[C@H]1CC[C@](O)(c2ccc(O)cn2)CC1", "MEAS_VALUE": "130 µg/mL"}
{"MOLECULE": "O=C(CCc1ccccc1)N[C@H]1CC[C@](O)(c2ccc(O)cc2)CC1", "MEAS_VALUE": "20 µg/mL"}
{"MOLECULE": "O=C(CCc1ccccc1)N[C@H]1CC[C@](O)(c2ccc(O)c(F)c2)CC1", "MEAS_VALUE": "17 µg/mL"}

INPUT: Entry `O=C(CCc1ccccc1)N[C@H]1CC[C@H](c2ccc(O)cc2)CC1` : reported solubility = ?
OUTPUT: < 5 µg/mL

INPUT: Entry `Cc1cc([C@]2(O)CC[C@@H](NC(=O)CCc3ccccc3)CC2)ccc1O` : reported solubility = ?
OUTPUT: < 5 µg/mL

---

- ASSAY_TARGET: UniProt:Q00960
- ASSAY_REMARKS: Displacement of [3H]CP-101606 from NR2B in rat forebrain P2 membrane
- Assay type: cell membranes, Brain
METRIC: IC50 (nM)
State just the number; it will be interpreted in nM.

{"ENTRY_SMILES": "O=C(CCc1ccccc1)N[C@H]1CC[C@](O)(c2ccc(O)cn2)CC1", "ASSAY_TARGET": "UniProt:Q00960", "MEAS_VALUE": 10}
{"ENTRY_SMILES": "O=C(CCc1ccccc1)N[C@H]1CC[C@](O)(c2ccc(O)c(F)c2)CC1", "ASSAY_TARGET": "UniProt:Q00960", "MEAS_VALUE": 13}

Kindly review the next compound as well.
INPUT: Entry `O=C(CCc1ccccc1)N[C@H]1CC[C@H](c2ccc(O)c(F)c2)CC1` : reported IC50 = ?
OUTPUT: 59

---

- ASSAY_REMARKS: Metabolic stability assessed Half life in human liver microsomes
- Assay type: ADME, Microsome
METRIC: half-life

INPUT: Entry `O=C(CCc1ccccc1)N[C@H]1CC[C@](O)(c2ccc(O)cn2)CC1` : reported half-life = ?
OUTPUT: > 1 h

---

- ASSAY_TARGET: Glutamate receptor ionotropic, NMDA 2B (Rattus norvegicus)
- Sequence (Q00960 whole entry): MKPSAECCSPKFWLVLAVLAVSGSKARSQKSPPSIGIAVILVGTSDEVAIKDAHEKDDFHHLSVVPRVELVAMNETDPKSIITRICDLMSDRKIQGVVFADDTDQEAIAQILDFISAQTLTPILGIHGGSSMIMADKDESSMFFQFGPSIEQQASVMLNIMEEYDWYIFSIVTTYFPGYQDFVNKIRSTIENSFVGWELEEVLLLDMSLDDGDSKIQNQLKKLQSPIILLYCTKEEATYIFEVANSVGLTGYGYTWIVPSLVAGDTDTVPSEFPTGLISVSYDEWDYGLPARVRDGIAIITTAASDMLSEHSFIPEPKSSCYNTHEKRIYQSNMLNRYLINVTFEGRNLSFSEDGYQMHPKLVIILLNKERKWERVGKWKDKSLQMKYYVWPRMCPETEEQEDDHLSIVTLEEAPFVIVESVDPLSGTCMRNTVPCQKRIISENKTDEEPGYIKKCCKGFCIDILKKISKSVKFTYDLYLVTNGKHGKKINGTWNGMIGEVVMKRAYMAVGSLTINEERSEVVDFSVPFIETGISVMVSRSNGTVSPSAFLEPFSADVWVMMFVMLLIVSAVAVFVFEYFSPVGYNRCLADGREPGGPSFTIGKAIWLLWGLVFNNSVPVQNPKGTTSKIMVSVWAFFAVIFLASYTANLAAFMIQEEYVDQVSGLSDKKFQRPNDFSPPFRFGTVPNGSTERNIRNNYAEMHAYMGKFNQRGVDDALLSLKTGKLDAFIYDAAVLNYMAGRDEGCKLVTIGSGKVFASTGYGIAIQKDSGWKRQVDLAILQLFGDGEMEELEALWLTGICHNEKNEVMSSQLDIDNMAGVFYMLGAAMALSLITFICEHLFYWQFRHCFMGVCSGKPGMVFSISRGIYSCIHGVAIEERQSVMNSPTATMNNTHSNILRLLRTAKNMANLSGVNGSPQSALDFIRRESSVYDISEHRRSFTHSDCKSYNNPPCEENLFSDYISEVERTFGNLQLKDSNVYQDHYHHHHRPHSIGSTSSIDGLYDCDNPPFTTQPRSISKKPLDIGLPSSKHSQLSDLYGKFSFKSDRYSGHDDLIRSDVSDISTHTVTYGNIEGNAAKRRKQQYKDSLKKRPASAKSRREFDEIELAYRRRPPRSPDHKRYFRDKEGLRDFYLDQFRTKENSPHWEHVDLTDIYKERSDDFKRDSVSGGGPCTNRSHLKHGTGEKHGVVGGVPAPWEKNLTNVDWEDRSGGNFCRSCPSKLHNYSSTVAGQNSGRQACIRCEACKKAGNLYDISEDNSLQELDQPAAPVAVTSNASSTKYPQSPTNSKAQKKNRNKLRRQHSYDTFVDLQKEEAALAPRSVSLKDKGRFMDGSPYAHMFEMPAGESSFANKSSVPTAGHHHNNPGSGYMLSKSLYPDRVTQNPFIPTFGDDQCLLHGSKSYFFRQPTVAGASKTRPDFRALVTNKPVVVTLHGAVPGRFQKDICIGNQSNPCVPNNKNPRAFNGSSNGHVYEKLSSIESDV
- ASSAY_REMARKS: Displacement of [3H]CP-101606 from NR2B in rat forebrain P2 membrane
METRIC: IC50 (nM)
State just the number; it will be interpreted in nM.

Example entries begin here.
{"ENTRY_SMILES": "Cc1cc([C@]2(O)CC[C@@H](NC(=O)CCc3ccccc3)CC2)ccc1O", "ASSAY_TARGET": "Glutamate receptor ionotropic, NMDA 2B (Rattus norvegicus)", "UNIT_INFO": "nM", "IC50": 189}
{"ENTRY_SMILES": "O=C(CCc1ccccc1)N[C@H]1CC[C@](O)(c2cn[nH]c2)CC1", "ASSAY_TARGET": "Glutamate receptor ionotropic, NMDA 2B (Rattus norvegicus)", "UNIT_INFO": "nM", "IC50": 2440}

Kindly review the next compound as well.
INPUT: Entry `O=C(CCc1ccccc1)N[C@H]1CC[C@](O)(c2c[nH]c3nc(=O)oc-3c2)CC1` : reported IC50 = ?
OUTPUT: 85
